# Tested on: PepT1
# test: in vitro
# conditionsUsed: chinese hamster, CHO-PepT1 cells and CHO-K1 cells
# Description: Ratio of drug uptake in CHO-PepT1 cells at 25 uM to drug uptake in CHOK1 cells at 25 uM
testReadout: uptake ratio at 25 µM

smilesInput | uptake ratio at 25 µM
O=C(N[C@@H](Cc1ccccc1)C(=O)NNC(=O)c1ccccc1)OCc1ccccc1 | 0.8
N#CNC(=O)[C@H](Cc1ccccc1)NC(=O)OCc1ccccc1 | 1

====

# test: Intrinsic clearance in human liver microsomes at 25 uM
# Format: ADME
# conditionsUsed: read-out: CLH
testReadout: microsomal CLint at 25 µM (µL/min/mg)

A. O=C(N[C@@H](Cc1ccccc1)C(=O)NO)OCc1ccccc1
B. O=C(N[C@@H](Cc1ccccc1)C(=O)NNC(=O)c1ccccc1)OCc1ccccc1
C. N#CNC(=O)[C@H](Cc1ccccc1)NC(=O)OCc1ccccc1
D. O=C(N[C@@H](Cc1ccccc1)c1nnc(-c2ccccc2)o1)OCc1ccccc1
Ask: sort_by: microsomal CLint at 25 µM; order: ascending; scope: items listed above Rank the items, then write their labels in that order.
Reply: C, A, B, D
(C: 11 µL/min/mg, A: 23 µL/min/mg, B: 65 µL/min/mg, D: 287 µL/min/mg)
